# subject-of-test: Beta-2 adrenergic receptor (Homo sapiens)
# test: Adrenergic beta2 receptor (ADRB2) small molecule antagonists, cell-based qHTS assay (AID 1963592); further: nearly all actives have a fitted effect of over 50% in size
# assay-setup: CHO-ADRB2 cells, isoproterenol-stimulated cAMP HTRF ratio, 0.5 h; series mostly up to 92.4 µM
Records with an inconclusive call do not appear. Activity calls are given as the source filed them. The call rests on the fitted dose curve.
One label from this list, please: active, inactive

Could you check what this test reported for `CC1=NN(c2cccc(S(=O)(=O)O)c2)C(=O)C1` ?
inactive

Could you check what this test reported for `CCS(=O)(=O)c1ccc(OC)c(C(=O)OC)c1` ?
inactive

Could you check what this test reported for `CC(=O)NNC(C)=O` ?
inactive

Could you check what this test reported for `O=S(=O)(c1cccc2cnccc12)N1CCCNCC1` ?
inactive

Could you check what this test reported for `CC(C)(C)CC(C)(C)c1ccccc1O` ?
inactive

Could you check what this test reported for NCCCC(N)(C(=O)O)C(F)F (centres undefined) ?
inactive

Could you check what this test reported for `CCN(CCCc1ccccc1)CCCc1ccccc1` ?
inactive

Could you check what this test reported for `CC[C@H]1OC(=O)[C@H](C)[C@@H](O[C@H]2C[C@@](C)(OC)[C@@H](O)[C@H](C)O2)[C@H](C)[C@@H](O[C@@H]2O[C@H](C)C[C@H](N(C)C)[C@H]2O)[C@](C)(O)C[C@@H](C)CN(C)[C@H](C)[C@@H](O)[C@]1(C)O` ?
inactive

Could you check what this test reported for `CNCc1cc(F)ccc1Oc1ccc(Cl)c(Cl)c1` ?
inactive

Could you check what this test reported for `Cc1ccc(O)c([C@H](CCN(C(C)C)C(C)C)c2ccccc2)c1` ?
inactive

Could you check what this test reported for `Nc1nc(Cl)cc(Cl)n1` ?
inactive

Could you check what this test reported for `Cc1cccc(C)c1NC(=O)CN(CC(=O)O)CC(=O)O` ?
inactive

Could you check what this test reported for CCCCCCC(C)OC(=O)COc1nc(F)c(Cl)c(N)c1Cl (centres undefined) ?
inactive

Could you check what this test reported for `CCn1nc(C(=O)O)c(=O)c2cc3c(cc21)OCO3` ?
inactive

Could you check what this test reported for `CN1CCN(CCC(=O)N2c3ccccc3Sc3ccc(C(F)(F)F)cc32)CC1` ?
active

Could you check what this test reported for `c1ccc(Cc2ccccc2)cc1` ?
inactive

Could you check what this test reported for `Cc1nc(Nc2ncc(C(=O)Nc3c(C)cccc3Cl)s2)cc(N2CCN(CCO)CC2)n1` ?
inactive

Could you check what this test reported for CC(C)NCC(O)c1cc(O)cc(O)c1 (centres undefined) ?
inactive

Could you check what this test reported for `CC/C=C\C/C=C\C/C=C\CCCCCCCC(=O)OC` ?
inactive

Could you check what this test reported for `CCOC(=O)CC(O)(CC(=O)OCC)C(=O)OCC` ?
inactive

Could you check what this test reported for `CNC(C)=O` ?
inactive

Could you check what this test reported for `CC1=C(C(=O)O)N2C(=O)[C@@H](NC(=O)[C@H](N)c3ccc(O)cc3)[C@H]2SC1` ?
inactive

Could you check what this test reported for `C[C@H]1c2cccc(O)c2C(O)=C2C(=O)[C@]3(O)C(O)=C(C(N)=O)C(=O)[C@@H](N(C)C)[C@@H]3[C@@H](O)[C@@H]21` ?
inactive

Could you check what this test reported for `Cc1cc(O)c2ccccc2c1O` ?
inactive

* * *

# subject-of-test: 5-hydroxytryptamine receptor 2A (Homo sapiens) (UniProt P28223)
# Sequence (P28223 whole entry, looked up): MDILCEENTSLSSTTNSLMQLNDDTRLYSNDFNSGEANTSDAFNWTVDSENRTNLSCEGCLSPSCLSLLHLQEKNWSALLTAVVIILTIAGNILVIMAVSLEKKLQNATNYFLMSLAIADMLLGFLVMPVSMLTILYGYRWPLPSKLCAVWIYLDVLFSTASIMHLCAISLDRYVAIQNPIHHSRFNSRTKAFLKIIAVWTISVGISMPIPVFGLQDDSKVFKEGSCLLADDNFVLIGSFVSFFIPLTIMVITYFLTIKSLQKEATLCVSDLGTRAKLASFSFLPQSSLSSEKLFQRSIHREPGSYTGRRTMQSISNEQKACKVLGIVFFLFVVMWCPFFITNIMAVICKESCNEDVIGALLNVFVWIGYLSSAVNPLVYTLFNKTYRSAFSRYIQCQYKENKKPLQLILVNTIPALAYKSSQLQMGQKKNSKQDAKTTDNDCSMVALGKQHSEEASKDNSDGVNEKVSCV
# test: 5-hydroxytryptamine receptor 2A (HTR2A) small molecule agonists, cell-based qHTS assay (AID 1963587); further: nearly all actives have a fitted effect of over 30% in size
# assay-setup: HTR2A-CHO cells, calcium flux fluorescence, agonist mode; series mostly up to 76.8 µM
Records with an inconclusive call do not appear. Activity calls are given as the source filed them. The call rests on the fitted dose curve.
One label from this list, please: active, inactive

Could you check what this test reported for CCN(CC)CC1CCCCN1CC(=O)N1c2ccccc2C(=O)Nc2cccnc21 (configuration not stated) ?
inactive

Could you check what this test reported for CCC(C)(C)c1ccc(CC(C)CN2C[C@@H](C)O[C@@H](C)C2)cc1 (some centres not stated) ?
inactive

Could you check what this test reported for `CCN(CC)C(=O)c1ccc(O)c(OC)c1` ?
inactive

Could you check what this test reported for `COc1ccc(NC(=O)CC(C)=O)cc1` ?
inactive

Could you check what this test reported for `Oc1c(Cl)cc(Cl)c2cccnc12` ?
inactive

Could you check what this test reported for `Cc1cc(O)c(C(C)C)cc1Cl` ?
inactive

Could you check what this test reported for `CNCc1ccc(NC(=O)c2c[nH]c3c2C(=O)CCC3)cc1` ?
inactive

Could you check what this test reported for `CO/N=C(/C(=O)N[C@@H]1C(=O)N2C(C(=O)[O-])=C(C[n+]3ccn4ncccc43)CS[C@H]12)c1nsc(N)n1` ?
inactive

Could you check what this test reported for `CCOc1ccc(NC(C)=O)cc1N` ?
inactive

Could you check what this test reported for C=C1CCC2CC1C2(C)C (configuration not stated) ?
inactive

Could you check what this test reported for `COc1cc(/C=C/c2ccccc2)oc(=O)c1` ?
inactive

Could you check what this test reported for `CCCc1nc(C)c2c(=O)[nH]c(-c3cc(S(=O)(=O)N4CCN(CC)CC4)ccc3OCC)nn12` ?
inactive

Could you check what this test reported for `O=c1cc(-c2ccc(O)cc2)oc2cc(O)cc(O)c12` ?
inactive

Could you check what this test reported for `Clc1cc(Cl)c2c(c1)N=C1CCCCCN1C2` ?
inactive

Could you check what this test reported for `CCN(CC)CCCN(c1ccccc1)C1Cc2ccccc2C1` ?
inactive

Could you check what this test reported for `CCCCCCCCCCCCCCOS(=O)(=O)O` ?
active

Could you check what this test reported for `N#CSCSc1nc2ccccc2s1` ?
inactive

Could you check what this test reported for `CCc1c(C(=O)NN2CCCCC2)nn(-c2ccc(Cl)cc2Cl)c1-c1ccc(Br)cc1` ?
inactive

Could you check what this test reported for `CC(C)(C)CC(C)(C)N` ?
inactive

Could you check what this test reported for `CC1=C(C(=O)O)N2C(=O)[C@@H](NC(=O)[C@H](N)c3ccc(O)cc3)[C@H]2SC1` ?
inactive

Could you check what this test reported for CCOCC(C)O (configuration not stated) ?
inactive

Could you check what this test reported for `C1COCO1` ?
inactive

Could you check what this test reported for `NCCN1CCOCC1` ?
inactive

Could you check what this test reported for `CC[C@@]1(c2ccccc2)NC(=O)N(C)C1=O` ?
inactive

Could you check what this test reported for `COc1ccc(C(=O)/C(Br)=C\C(=O)O)cc1` ?
inactive

Could you check what this test reported for `CC(C)O` ?
inactive

Could you check what this test reported for `O=CN(CCO)CCO` ?
inactive

* * *

# subject-of-test: D(2) dopamine receptor (Homo sapiens)
# test: Dopamine D2 receptor (DRD2) small molecule antagonists, cell-based qHTS assay (AID 1963595)
# assay-setup: HEK293-DRD2 cAMP HTRF antagonist mode; series mostly up to 92.4 µM
Inconclusive results are not listed. The source made the active and inactive calls. The call rests on the fitted dose curve; in most records, active means well fitted inhibition curve with a large enough effect in the signal ratio in the repeat runs, with a control signal flat; inconclusive means weak or mixed curves, or effect the other way; inactive means flat fitted curve, though single readings scatter; the % refers to the signal ratio.
One label from this list, please: TRUE for active, FALSE for inactive

Could you check what this test reported for `O=C(c1ccccc1)c1ccc(O)cc1` ?
FALSE

Could you check what this test reported for `COC(=O)c1ccc(C(=O)O)cc1` ?
FALSE

Could you check what this test reported for `Clc1nc2ccccc2nc1Cl` ?
FALSE

Could you check what this test reported for `O=C(O)/C=C/c1ccc(O)c(O)c1` ?
FALSE

Could you check what this test reported for `O=c1cc(-c2ccccc2)oc2cc(O)cc(O)c12` ?
FALSE

Could you check what this test reported for CC(C)NCC(O)c1cc(O)cc(O)c1 (stereo not drawn) ?
FALSE

Could you check what this test reported for FC1(F)C(F)(F)C(F)(F)C2(F)C(F)(F)C(F)(F)C(F)(F)C(F)(F)C2(F)C1(F)F (stereo not drawn) ?
FALSE

Could you check what this test reported for `C=Cc1ccncc1` ?
FALSE

Could you check what this test reported for CC1CCCCN1CCCOC(=O)c1ccc(OC2CCCCC2)cc1 (stereo not drawn) ?
FALSE

Could you check what this test reported for `[Ca+2]` ?
FALSE

Could you check what this test reported for `O=C(O)c1nc(Cl)c(Cl)c(Cl)c1Cl` ?
FALSE

Could you check what this test reported for `Nc1cccc([N+](=O)[O-])c1` ?
FALSE

Could you check what this test reported for `Cc1ccc(Nc2c(F)cccc2Cl)c(CC(=O)O)c1` ?
FALSE

Could you check what this test reported for `Nc1nc2ccc(OC(F)(F)F)cc2s1` ?
FALSE

Could you check what this test reported for `COc1ccc(C(=O)c2ccc(C)cc2)c(O)c1` ?
FALSE

Could you check what this test reported for `Cc1cc(Cl)c(C)cc1Cl` ?
FALSE

Could you check what this test reported for `COC(Cc1ccccc1)OC` ?
FALSE

Could you check what this test reported for `Cc1c[nH]c(=S)[nH]c1=O` ?
FALSE

Could you check what this test reported for `O=C1NCC2(CCN(CCc3ccccc3)CC2)O1` ?
FALSE

Could you check what this test reported for `CCCNCCC` ?
FALSE

Could you check what this test reported for `CC[C@@H]([C@H](C)O)n1ncn(-c2ccc(N3CCN(c4ccc(OC[C@@H]5CO[C@@](Cn6cncn6)(c6ccc(F)cc6F)C5)cc4)CC3)cc2)c1=O` ?
FALSE

Could you check what this test reported for `Nc1cc(Cl)c([N+](=O)[O-])cc1O` ?
FALSE

Could you check what this test reported for `COc1ccc2ccccc2c1` ?
FALSE

Could you check what this test reported for CCN(CC)CC1CCCCN1CC(=O)N1c2ccccc2C(=O)Nc2cccnc21 (stereo not drawn) ?
FALSE

Could you check what this test reported for `Cc1cccc(OCCOc2cccc(C)c2)c1` ?
FALSE

Could you check what this test reported for `CCCCCCCOC(=O)c1ccc(O)cc1` ?
FALSE

Could you check what this test reported for CC1C2CC(CC2C2CCCC(O)C2)C1(C)C (stereo not drawn) ?
FALSE

Could you check what this test reported for `CCN(CCC#N)c1ccccc1` ?
FALSE

Could you check what this test reported for CCCCC(CC)CNC(=O)CC(C)OC(=O)CCC(=O)O (stereo not drawn) ?
FALSE

Could you check what this test reported for `O=C(Nc1cccc(Cl)c1)OCC#CCCl` ?
FALSE

Could you check what this test reported for `CCc1ccccc1` ?
FALSE

Could you check what this test reported for `COC(C)(C)CC(C)=O` ?
FALSE

Could you check what this test reported for `COc1ccc(CCO)cc1` ?
FALSE

Could you check what this test reported for `CCCC(=O)OC(C)(C)Cc1ccccc1` ?
FALSE

Could you check what this test reported for `C=C(C)C(=O)OCCOP(=O)(O)OCCOC(=O)C(=C)C` ?
FALSE

Could you check what this test reported for `Cc1oc2c(NC(=O)c3c(Cl)cccc3Cl)cccc2c1C(C)(C)O` ?
FALSE

Could you check what this test reported for CC(=O)/C(C)=C/C1C(C)=CCCC1(C)C (stereo not drawn) ?
FALSE

Could you check what this test reported for CCC1Nc2cc(Cl)c(S(N)(=O)=O)cc2S(=O)(=O)N1 (stereo not drawn) ?
FALSE

Could you check what this test reported for `O=[N+]([O-])c1ccc(O/N=C/c2cc(Br)c(O)c(Br)c2)c([N+](=O)[O-])c1` ?
FALSE

Could you check what this test reported for CCCCCCC(O)CCCCCCCCCCC(=O)O (stereo not drawn) ?
FALSE

Could you check what this test reported for C=C(C)C(=O)OCC(O)COc1ccc(C(C)(C)c2ccc(OCC(O)COC(=O)C(=C)C)cc2)cc1 (stereo not drawn) ?
FALSE

Could you check what this test reported for `C=C(C)C(=O)OCCO` ?
FALSE

Could you check what this test reported for CC(S)C(C)S (stereo not drawn) ?
FALSE

Could you check what this test reported for `CC(C)(C)c1cc(CCC(=O)OCC(COC(=O)CCc2cc(C(C)(C)C)c(O)c(C(C)(C)C)c2)(COC(=O)CCc2cc(C(C)(C)C)c(O)c(C(C)(C)C)c2)COC(=O)CCc2cc(C(C)(C)C)c(O)c(C(C)(C)C)c2)cc(C(C)(C)C)c1O` ?
FALSE

Could you check what this test reported for CC1=NN(c2ccc(S(=O)(=O)O)cc2)C(=O)C1N=Nc1ccccc1 (stereo not drawn) ?
FALSE

Could you check what this test reported for `CCCCC[C@H](O)/C=C/[C@H]1[C@H](O)CC(=O)[C@@H]1C/C=C\CCCC(=O)O` ?
TRUE

Could you check what this test reported for `CN(CCCN1c2ccccc2CCc2ccccc21)CC(=O)c1ccc(Cl)cc1` ?
FALSE

Could you check what this test reported for CCCCC(CC)COS(=O)(=O)O (stereo not drawn) ?
FALSE

Could you check what this test reported for `C1CN(SSN2CCOCC2)CCO1` ?
FALSE

Could you check what this test reported for `CC(C)OC(=O)c1ccccc1C(=O)OC(C)C` ?
FALSE

Could you check what this test reported for `Cn1c(=O)c2c(ncn2CCO)n(C)c1=O` ?
FALSE

Could you check what this test reported for C=C(C)C1CC=C(C)C(=O)C1 (stereo not drawn) ?
FALSE

Could you check what this test reported for `CC(=O)c1ccc(OCC(=O)N2CCCCC2)cc1` ?
FALSE
